Tested on: human adult PBMCs
Assay: TNF production by ELISA after stimulation of human adult PBMCs
Assay type: cell-based
Settings: median percentage TNF production as compared to R848; adult PBMCs, 33 μM, 18 hours, N=3-5
Procedure: Table 1. […] Specifically, TNF production was measured by ELISA after stimulation of adult PBMCs with compound 037 analog family or the compound R848 at 33 μM for 18 hours. […] ELISAs and Multiplex-Analyte Assays. […] Assays were read and analyzed on the Luminex® 100/200™ System and xPOTENT® software (Luminex, Austin, Tex.). […]
Overview of reported TNF % (Median) across a group of compounds:

Please review the entries below; each comes with its answer.
Cc1ccc(C(=O)Nc2cc(-c3cn4cc(F)cnc4n3)ccc2C)c(C(F)(F)F)c1 = 65.93%
CCC(C(=O)Nc1cc(-c2cn3cc(C)cnc3n2)ccc1Cl)c1ccccc1 (stereo not shown) = 35.71%
Cc1ccc(-c2cn3cc(F)cnc3n2)cc1NC(=O)c1cc(F)ccc1C(F)(F)F = 53.91%

Now consider a different compound.
Please give measured TNF % (Median) of the following entry: Cc1ccc(-c2cn3cc(F)cnc3n2)cc1NC(=O)C(C)c1ccccc1 (stereo not shown) 7.51%
